From: the supplement of paper PMC11061612

# System: OVMIU (Ovarian Carcinoma);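 further: after 72 h of two-drug dosing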
# protocol-summary: Bliss excess, mean over the matrix (fraction); higher = more synergy
observed-property: Bliss excess
Answer with the value's number alone.

compound	observed-property	quantitative-result
CS(=O)(=O)CCNCc1ccc(-c2ccc3ncnc(Nc4ccc(OCc5cccc(F)c5)c(Cl)c4)c3c2)o1 [Lapatinib] + Cn1cnc2c(F)c(Nc3ccc(Br)cc3Cl)c(C(=O)NOCCO)cc21 [Selumetinib] (first compound max 10 µM, 7x7, partner max 10 µM)	Bliss excess	-0.102
COc1cccc(OCCCN)c1-c1cc(Nc2cnc(C#N)cn2)n[nH]1 [Prexasertib] + CN(C)CCCOc1ccc(-c2ccc3ncc4c(c3c2)n(C2CCOCC2)c(=O)n4C)cn1 [AZD0156] (first compound max 1 µM, 7x7, partner max 1 µM)	Bliss excess	-0.0012
N#Cc1cnc(Nc2cc(NC[C@H]3CNCCO3)c(C(F)(F)F)cn2)cn1 [SRA737] + O=c1[nH]cc(F)c(=O)[nH]1 [5-Fluorouracil] (first compound max 10 µM, 7x7, partner max 20 µM)	Bliss excess	-0.0569
C=CCn1c(=O)c2cnc(Nc3ccc(N4CCN(C)CC4)cc3)nc2n1-c1cccc(C(C)(C)O)n1 [AZD1775] + CCc1c2c(nc3ccc(O)cc13)-c1cc3c(c(=O)n1C2)COC(=O)[C@]3(O)CC [SN-38] (first compound max 1 µM, partner max 0.3 µM)	Bliss excess	-0.055
Cc1cc2ncnn2cc1Nc1ncc2c(n1)n(C1CCOCC1)c(=O)n2C [AZD7648] + C=CCn1c(=O)c2cnc(Nc3ccc(N4CCN(C)CC4)cc3)nc2n1-c1cccc(C(C)(C)O)n1 [AZD1775] (first compound max 10 µM, partner max 1 µM)	Bliss excess	0.0747

Could you share what Bliss excess was measured for COc1nnc2ccc(N3CCC(c4ccc(OCCN5CCN(C)C(=O)[C@H]5C)cc4)CC3)nn12 [AZD5153] + Cn1cnc2c(F)c(Nc3ccc(Br)cc3Cl)c(C(=O)NOCCO)cc21 [Selumetinib] (first compound max 1 µM, 7x7, partner max 10 µM) , tested on OVMIU (Ovarian Carcinoma)?;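 further: after 72 h of two-drug dosing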
-0.0452

Could you share what Bliss excess was measured for Cn1cnc2c(F)c(Nc3ccc(Br)cc3Cl)c(C(=O)NOCCO)cc21 [Selumetinib] + C=CCn1c(=O)c2cnc(Nc3ccc(N4CCN(C)CC4)cc3)nc2n1-c1cccc(C(C)(C)O)n1 [AZD1775] (first compound max 10 µM, partner max 1 µM) , tested on OVMIU (Ovarian Carcinoma)?;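 further: after 72 h of two-drug dosing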
-0.0888

Could you share what Bliss excess was measured for COc1cc2c(cc1OCCCCCOc1cc3c(cc1OC)C(=O)N1C=C(C)C[C@H]1C=N3)N=C[C@@H]1CC(C)=CN1C2=O [SG3199] + O=C(c1cc(Cc2n[nH]c(=O)c3ccccc23)ccc1F)N1CCN(C(=O)C2CC2)CC1 [Olaparib] (first compound max 0.001 µM, 7x7, partner max 10 µM) , tested on OVMIU (Ovarian Carcinoma)?;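 further: after 72 h of two-drug dosing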
-0.0898

----------
# Tested on: LK-2 (Squamous Cell Lung Carcinoma)
# protocol-summary: combination Emax (second highest fraction inhibited in the dose matrix, 72 h); higher = more inhibition; extreme values may be limits of the assay
observed-property: combination Emax
Answer with the value's number alone.

Look up combination Emax for this compound: Cc1c2c(nn1C)CSCc1cc(n(C)n1)CSc1cc(c3ccccc3c1)OCCCc1c(C(=O)O)n(C)c3c-2c(Cl)ccc13 [AZD5991] + Cc1cc2ncnn2cc1Nc1ncc2c(n1)n(C1CCOCC1)c(=O)n2C [AZD7648] (first compound max 1 µM, 7x7, partner max 10 µM)
0.198

Look up combination Emax for this compound: Cc1c2c(nn1C)CSCc1cc(n(C)n1)CSc1cc(c3ccccc3c1)OCCCc1c(C(=O)O)n(C)c3c-2c(Cl)ccc13 [AZD5991] + CCN(CCO)CCCOc1ccc2c(Nc3cc(CC(=O)Nc4cccc(F)c4)[nH]n3)ncnc2c1 [AZD2811] (first compound max 1 µM, 7x7, partner max 1 µM)
0.962

Look up combination Emax for this compound: CN(CCO)CC[C@H](CSc1ccccc1)Nc1ccc(S(=O)(=O)NC(=O)c2ccc(N3CCC([C@@H](O)c4ccccc4-c4ccc(Cl)cc4)CC3)cc2)cc1S(=O)(=O)C(F)(F)F [AZD4320] + CN(C)CCCOc1ccc(-c2ccc3ncc4c(c3c2)n(C2CCOCC2)c(=O)n4C)cn1 [AZD0156] (first compound max 1 µM, 7x7, partner max 1 µM)
0.712

Look up combination Emax for this compound: COc1nnc2ccc(N3CCC(c4ccc(OCCN5CCN(C)C(=O)[C@H]5C)cc4)CC3)nn12 [AZD5153] + Cn1cnc2c(F)c(Nc3ccc(Br)cc3Cl)c(C(=O)NOCCO)cc21 [Selumetinib] (first compound max 1 µM, 7x7, partner max 10 µM)
0.6

Look up combination Emax for this compound: CC1(C)CCC(CN2CCN(c3ccc(C(=O)NS(=O)(=O)c4ccc(NCC5CCOCC5)c([N+](=O)[O-])c4)c(Oc4cnc5[nH]ccc5c4)c3)CC2)=C(c2ccc(Cl)cc2)C1 [Venetoclax] + Cn1cnc2c(F)c(Nc3ccc(Br)cc3Cl)c(C(=O)NOCCO)cc21 [Selumetinib] (first compound max 1 µM, 7x7, partner max 3 µM)
0.172

Look up combination Emax for this compound: NC1(C(=O)N[C@@H](CCO)c2ccc(Cl)cc2)CCN(c2ncnc3[nH]ccc23)CC1 [Capivasertib] + CC(C)n1c(=O)n(C)c2cnc3cc(F)c(-c4ccc(OCCCN5CCCCC5)nc4)cc3c21 [AZD1390] (first compound max 10 µM, 7x7, partner max 0.3 µM)
0.0982
